Target: Low molecular weight phosphotyrosine protein phosphatase (Homo sapiens)
Sequence (P24666 whole entry): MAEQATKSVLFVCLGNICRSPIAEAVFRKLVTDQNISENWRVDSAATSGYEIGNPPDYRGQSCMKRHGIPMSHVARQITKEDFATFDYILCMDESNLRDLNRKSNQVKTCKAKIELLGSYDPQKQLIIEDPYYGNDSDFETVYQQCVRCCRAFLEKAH
Type: functional
Conditions: read-out: IC50_Mean
The source made the active and inactive calls.
# valid calls are active, inactive; nothing else

COc1ccc(-c2cnnc(N/N=C/c3ccc(-c4ccc([N+](=O)[O-])cc4)o3)n2)cc1 inactive
COc1ccc(/N=c2\[nH]c(=O)c3cc([N+](=O)[O-])ccc3s2)cc1 active

Task: For this compound, state the assay outcome: "c1ccc(-c2nc(NCCCN3CCOCC3)c3ccccc3n2)cc1"
Result: inactive

Task: For this compound, state the assay outcome: "O=C(N=Nc1c(O)[nH]c2ccc([N+](=O)[O-])cc12)c1cc(-c2ccccc2Cl)nc2ccccc12"
Result: active

* * *

Target: Corticotropin-releasing factor receptor 2/Corticotropin-releasing factor-binding protein (Homo sapiens, UniProt P24387+Q13324)
Sequence (Q13324 whole entry): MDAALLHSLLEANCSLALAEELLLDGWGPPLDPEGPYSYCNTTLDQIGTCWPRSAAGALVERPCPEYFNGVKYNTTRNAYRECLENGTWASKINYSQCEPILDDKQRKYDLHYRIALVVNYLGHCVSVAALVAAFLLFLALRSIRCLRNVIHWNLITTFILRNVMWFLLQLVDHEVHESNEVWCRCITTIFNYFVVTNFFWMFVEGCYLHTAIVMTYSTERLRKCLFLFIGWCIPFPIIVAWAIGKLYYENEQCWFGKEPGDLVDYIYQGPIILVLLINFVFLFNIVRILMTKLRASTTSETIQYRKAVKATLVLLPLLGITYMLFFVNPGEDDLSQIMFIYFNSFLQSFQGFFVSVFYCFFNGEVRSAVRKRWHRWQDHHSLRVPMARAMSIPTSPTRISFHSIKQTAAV
Sequence (P24387 whole entry): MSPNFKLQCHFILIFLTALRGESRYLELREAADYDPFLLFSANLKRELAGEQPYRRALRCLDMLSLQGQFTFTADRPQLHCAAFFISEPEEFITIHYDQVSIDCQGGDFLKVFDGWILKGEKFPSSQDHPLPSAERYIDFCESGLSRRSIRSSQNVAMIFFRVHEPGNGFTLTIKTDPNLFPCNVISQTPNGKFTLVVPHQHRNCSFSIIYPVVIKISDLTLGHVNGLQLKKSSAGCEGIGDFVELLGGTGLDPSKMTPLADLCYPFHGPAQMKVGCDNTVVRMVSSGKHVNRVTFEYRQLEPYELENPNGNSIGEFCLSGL
Assay: Dose Response confirmation of uHTS hits for small molecule antagonists of the CRF-binding protein and CRF-R2 receptor complex.
Format: functional
Conditions: read-out: IC50_Mean
Active and inactive are the calls of the source.
# valid calls are active, inactive; nothing else

Consider the worked cases shown below.
COMPOUND	GROUP_LABEL
Cc1ccc(CCNC(=O)C2CCCN(S(=O)(=O)N3CC(C)CC(C)C3)C2)cc1 (centres undefined)	inactive
O=C1CC(c2ccccc2)CN1S(=O)(=O)c1ccccc1 (centres undefined)	inactive
CC1(C)C2CC=C(/C=N/NC(=O)c3ccccc3O)C1C2 (centres undefined)	active

Please turn your attention to the following entry.
Task: For this compound, state the assay outcome: Cc1c(N2C(=O)C3C4C=CC(C5CC45)C3C2=O)c(=O)n(-c2ccccc2)n1C (centres undefined)
Result: inactive

* * *

Biological target: Peroxisome proliferator-activated receptor gamma/Nuclear receptor coactivator 2 (Homo sapiens)
Sequence (P37231 whole entry): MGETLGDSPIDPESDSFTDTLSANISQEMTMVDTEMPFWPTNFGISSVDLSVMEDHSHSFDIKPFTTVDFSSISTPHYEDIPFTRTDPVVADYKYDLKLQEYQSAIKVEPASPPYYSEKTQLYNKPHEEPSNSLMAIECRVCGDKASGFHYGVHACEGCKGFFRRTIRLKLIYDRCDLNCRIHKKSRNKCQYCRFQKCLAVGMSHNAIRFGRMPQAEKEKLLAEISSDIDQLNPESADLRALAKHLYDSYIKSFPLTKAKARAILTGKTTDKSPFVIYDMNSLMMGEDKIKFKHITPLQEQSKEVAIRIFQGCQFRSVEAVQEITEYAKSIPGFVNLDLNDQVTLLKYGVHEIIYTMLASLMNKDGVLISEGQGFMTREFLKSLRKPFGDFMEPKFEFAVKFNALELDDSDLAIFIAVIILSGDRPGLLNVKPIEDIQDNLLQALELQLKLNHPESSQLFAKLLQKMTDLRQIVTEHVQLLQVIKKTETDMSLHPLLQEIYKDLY
Sequence (Q15596 whole entry, further chain): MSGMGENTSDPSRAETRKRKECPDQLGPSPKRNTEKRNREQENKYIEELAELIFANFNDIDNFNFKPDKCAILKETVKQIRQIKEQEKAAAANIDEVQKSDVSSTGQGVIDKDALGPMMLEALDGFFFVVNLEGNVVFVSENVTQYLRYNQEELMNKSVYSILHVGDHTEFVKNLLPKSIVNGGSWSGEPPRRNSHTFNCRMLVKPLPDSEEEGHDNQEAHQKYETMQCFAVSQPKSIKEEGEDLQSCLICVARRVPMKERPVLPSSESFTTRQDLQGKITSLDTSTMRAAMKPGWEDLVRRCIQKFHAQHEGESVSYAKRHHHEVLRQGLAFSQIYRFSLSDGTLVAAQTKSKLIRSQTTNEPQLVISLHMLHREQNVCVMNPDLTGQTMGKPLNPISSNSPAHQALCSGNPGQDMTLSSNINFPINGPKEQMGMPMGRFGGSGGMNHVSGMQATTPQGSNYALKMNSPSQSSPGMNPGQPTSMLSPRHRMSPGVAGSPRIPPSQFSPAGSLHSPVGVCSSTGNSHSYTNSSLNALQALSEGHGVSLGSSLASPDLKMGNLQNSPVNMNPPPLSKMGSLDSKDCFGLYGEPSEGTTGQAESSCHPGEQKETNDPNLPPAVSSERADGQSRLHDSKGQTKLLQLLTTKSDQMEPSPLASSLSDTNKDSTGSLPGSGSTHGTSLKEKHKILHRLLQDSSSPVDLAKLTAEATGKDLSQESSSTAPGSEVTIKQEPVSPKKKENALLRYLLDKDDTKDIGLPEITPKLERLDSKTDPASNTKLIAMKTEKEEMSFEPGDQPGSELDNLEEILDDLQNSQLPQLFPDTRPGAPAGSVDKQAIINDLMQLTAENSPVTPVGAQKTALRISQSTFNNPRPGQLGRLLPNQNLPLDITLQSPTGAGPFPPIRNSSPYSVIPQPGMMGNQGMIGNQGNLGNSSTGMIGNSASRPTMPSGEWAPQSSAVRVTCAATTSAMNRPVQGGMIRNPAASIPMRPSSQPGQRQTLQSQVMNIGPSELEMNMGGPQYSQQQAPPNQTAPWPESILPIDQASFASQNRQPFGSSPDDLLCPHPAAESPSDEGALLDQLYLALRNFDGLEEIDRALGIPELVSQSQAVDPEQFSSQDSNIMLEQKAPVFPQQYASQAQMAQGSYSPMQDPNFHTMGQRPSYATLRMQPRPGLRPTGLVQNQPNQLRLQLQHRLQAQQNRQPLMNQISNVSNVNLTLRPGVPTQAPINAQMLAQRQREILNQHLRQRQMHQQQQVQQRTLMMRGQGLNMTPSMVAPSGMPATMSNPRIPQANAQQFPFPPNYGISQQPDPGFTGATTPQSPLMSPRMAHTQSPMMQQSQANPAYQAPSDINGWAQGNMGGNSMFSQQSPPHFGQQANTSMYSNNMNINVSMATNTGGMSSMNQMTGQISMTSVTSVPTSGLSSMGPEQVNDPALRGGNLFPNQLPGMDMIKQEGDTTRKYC
Experiment: TR-FRET dose response biochemical High Throughput Screening assay for agonists of the steroid receptor coactivator 2 (SRC-2) recruitment by the peroxisome proliferator-activated receptor gamma (PPAR gamma): non-selective agonists. [Related pubchem assays: 1297, 1032 ]
Format: functional
Calls of active or inactive are those of the source.
Reported EC50 values follow for various compounds

Recorded EC50, per entry:
COMPOUND	MEASUREMENT_LABEL	ENDPOINT_VALUE
COc1ccccc1C1=NN(C(S)=Nc2ccccc2)C(c2ccco2)C1 (centres undefined)	EC50	> 79.4 µM (not active)
CCn1c(=O)cc(SCC(=O)NCC2CCCO2)c2ccccc21 (centres undefined)	EC50	> 79.4 µM (not active)
CC(=O)Oc1c(/C=C(\C#N)C(N)=O)[nH]c2ccccc12	EC50	22.6 µM (not active)

Proceeding to the next compound to report its EC50.
For CN(C)CCCN1C(=O)C(O)=C(C(=O)c2cc3ccccc3o2)C1c1ccccc1 (centres undefined) the compound record lists EC50 as 4.26 µM (active)

* * *

Biological target: SWI/SNF-related matrix-associated actin-dependent regulator of chromatin subfamily A member 2 (Homo sapiens)
Sequence (P51531 whole entry): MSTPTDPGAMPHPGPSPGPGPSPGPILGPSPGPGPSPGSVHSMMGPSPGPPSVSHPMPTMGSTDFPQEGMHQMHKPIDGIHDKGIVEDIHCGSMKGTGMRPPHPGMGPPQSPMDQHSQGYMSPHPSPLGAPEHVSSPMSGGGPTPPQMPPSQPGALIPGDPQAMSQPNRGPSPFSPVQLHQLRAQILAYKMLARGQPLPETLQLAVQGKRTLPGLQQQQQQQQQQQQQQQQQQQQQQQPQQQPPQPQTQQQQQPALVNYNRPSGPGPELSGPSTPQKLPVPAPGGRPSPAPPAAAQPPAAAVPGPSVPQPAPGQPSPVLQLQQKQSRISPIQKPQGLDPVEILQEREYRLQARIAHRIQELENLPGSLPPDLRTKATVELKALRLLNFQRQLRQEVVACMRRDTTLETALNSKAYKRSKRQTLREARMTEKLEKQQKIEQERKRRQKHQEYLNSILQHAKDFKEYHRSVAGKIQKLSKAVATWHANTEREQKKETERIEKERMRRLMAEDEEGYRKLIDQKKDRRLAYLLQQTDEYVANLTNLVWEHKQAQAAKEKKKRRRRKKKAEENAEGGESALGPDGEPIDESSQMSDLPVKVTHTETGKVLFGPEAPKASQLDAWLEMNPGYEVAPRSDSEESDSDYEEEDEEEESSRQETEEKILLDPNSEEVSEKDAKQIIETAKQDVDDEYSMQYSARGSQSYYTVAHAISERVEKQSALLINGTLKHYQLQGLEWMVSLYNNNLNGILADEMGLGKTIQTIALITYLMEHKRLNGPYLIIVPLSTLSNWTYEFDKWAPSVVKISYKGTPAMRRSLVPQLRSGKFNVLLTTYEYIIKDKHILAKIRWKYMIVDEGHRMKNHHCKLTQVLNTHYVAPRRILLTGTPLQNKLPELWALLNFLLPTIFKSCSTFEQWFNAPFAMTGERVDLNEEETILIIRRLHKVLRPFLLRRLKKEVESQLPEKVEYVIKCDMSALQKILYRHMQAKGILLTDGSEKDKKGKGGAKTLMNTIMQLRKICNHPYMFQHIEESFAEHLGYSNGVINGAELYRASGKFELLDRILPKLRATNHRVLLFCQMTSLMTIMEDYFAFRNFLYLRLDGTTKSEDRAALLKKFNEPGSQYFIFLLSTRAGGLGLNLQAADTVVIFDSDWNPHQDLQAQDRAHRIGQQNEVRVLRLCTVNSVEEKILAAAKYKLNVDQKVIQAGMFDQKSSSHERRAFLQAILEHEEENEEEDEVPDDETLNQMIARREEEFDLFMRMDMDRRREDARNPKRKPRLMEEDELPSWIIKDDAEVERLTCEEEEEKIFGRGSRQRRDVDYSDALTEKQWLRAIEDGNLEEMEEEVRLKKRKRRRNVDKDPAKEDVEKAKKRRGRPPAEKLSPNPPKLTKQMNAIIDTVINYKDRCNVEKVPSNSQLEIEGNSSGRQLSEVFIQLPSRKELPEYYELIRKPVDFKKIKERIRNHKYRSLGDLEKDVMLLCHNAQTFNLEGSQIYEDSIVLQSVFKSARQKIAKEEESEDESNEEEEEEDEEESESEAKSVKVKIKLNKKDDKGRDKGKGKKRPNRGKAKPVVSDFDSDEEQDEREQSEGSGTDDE
Test: Luminescence-based cell-based high throughput dose response assay to identify activators of the function of SWI/SNF related, matrix associated, actin dependent regulator of chromatin, subfamily a, member 2 (SMARCA2, BRM).
Type: functional
Calls of active or inactive are those of the source.
MEASUREMENT_LABEL: EC50

Recorded EC50, per entry:
Cc1cccc(C(=O)N[C@H](C(=O)Nc2ncc(C)s2)C(C)C)c1 > 91.1 µM (inactive)
O=C(Cn1sc2ccccc2c1=O)Nc1ccc(F)cc1 > 91.1 µM (inactive)
CCc1cccc2c(C(=O)CN3C(=O)NC4(CCCCCC4)C3=O)c[nH]c12 > 91.2 µM (inactive)

Proceeding to the next compound to report its EC50.
For "Cc1ccc(-n2sc3ccccc3c2=O)cc1" the compound record lists EC50 as > 91.2 µM (inactive)
